The compounds listed here are annotated with their pIC50.
# tested target: Human MAO-A (Homo sapiens)
# Sequence (P21397 whole entry): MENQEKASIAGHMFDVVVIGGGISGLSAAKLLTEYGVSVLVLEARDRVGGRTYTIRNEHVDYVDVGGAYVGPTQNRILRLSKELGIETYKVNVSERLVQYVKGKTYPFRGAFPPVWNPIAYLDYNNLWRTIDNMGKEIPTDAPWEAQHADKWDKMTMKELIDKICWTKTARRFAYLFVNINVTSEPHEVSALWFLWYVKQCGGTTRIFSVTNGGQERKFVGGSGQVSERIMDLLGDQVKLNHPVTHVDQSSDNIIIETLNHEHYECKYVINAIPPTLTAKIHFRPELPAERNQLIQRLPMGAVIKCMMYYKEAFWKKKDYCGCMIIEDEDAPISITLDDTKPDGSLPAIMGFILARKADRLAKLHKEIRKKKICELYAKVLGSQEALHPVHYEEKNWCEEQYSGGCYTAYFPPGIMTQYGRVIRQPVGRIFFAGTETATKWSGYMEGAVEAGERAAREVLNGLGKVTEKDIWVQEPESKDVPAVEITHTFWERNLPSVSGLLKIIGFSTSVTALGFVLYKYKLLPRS
# assay explanation: MAO-A inhibition (Amplex Red continuous fluorescence assay)
# Format: biochemical
# setup conditions: 30 min pre-incubation at room temp; substrate tyramine; read-out: Human MAO-A IC50
pIC50: −log10 of the molar value. Where a name gives a salt, the structure may show the parent alone.

| compound | tested target | pIC50 |
| --- | --- | --- |
| NC/C(=C/F)COCc1ccccc1 [Compound 6, hydrochloride] | Human MAO-A (Homo sapiens) | > 5.52 |
| CC(=O)N(C/C(=C/F)CN)c1ccccc1 [Compound 1, hydrochloride] | Human MAO-A (Homo sapiens) | < 5.00 |

Request: Please report the measured pIC50 for NC/C(=C/F)COc1ccc(-c2nccs2)cc1 [Compound 20, Hydrochloride]
Result: > 5.52

Request: Entry `NC/C(=C\F)COc1ccc(C2=NCCN2)cc1` needs its pIC50 filled in; supply it.
Result: < 5.00

Request: Tell us which pIC50 value is on record for NC/C(=C/F)COc1ccc(-c2nc3ccccc3[nH]2)cc1 [Compound 11, hydrochloride]
Result: > 5.52

Request: Fill in reported pIC50 for this entry: `NC/C(=C\F)CNC(=O)Nc1ccccc1`
Result: > 5.52

Request: Please give measured pIC50 of the following entry: CC(C)(C)NC(=O)c1ccc(NC/C(=C\F)CN)cc1 [Compound 46, hydrochloride]
Result: < 5.00

Request: # return recorded pIC50 for entry `CCNC(=O)Oc1ccc(OC/C(=C/F)CN)cc1`
Result: > 5.52

Request: Using the record for NC/C(=C\F)COc1ccc(-c2ccn[nH]2)cc1 [Compound 42, hydrochloride] , state its measured pIC50.
Result: > 5.52

Request: Respond only with pIC50 recorded for `CC(C)(C)NC(=O)c1cccc2c1ccn2CC(=CF)CN`
Result: < 5.00

Request: Using the record for `CCOC(=O)Nc1ccc(OC/C(=C/F)CN)cc1` , state its measured pIC50.
Result: > 5.52

Request: Give a short answer stating reported pIC50 for NC/C(=C\F)COc1ccc(-c2nccs2)cc1 [Compound 19, hydrochloride] .
Result: 5.00 to 5.52

Request: Give pIC50 for the following compound: `NC/C(=C/F)COC(=O)Nc1ccccc1`
Result: > 5.52

###

Reported IC50 values follow for various compounds
# tested target: Human DAO (Homo sapiens, UniProt P19801)
# Sequence (P19801 20-751): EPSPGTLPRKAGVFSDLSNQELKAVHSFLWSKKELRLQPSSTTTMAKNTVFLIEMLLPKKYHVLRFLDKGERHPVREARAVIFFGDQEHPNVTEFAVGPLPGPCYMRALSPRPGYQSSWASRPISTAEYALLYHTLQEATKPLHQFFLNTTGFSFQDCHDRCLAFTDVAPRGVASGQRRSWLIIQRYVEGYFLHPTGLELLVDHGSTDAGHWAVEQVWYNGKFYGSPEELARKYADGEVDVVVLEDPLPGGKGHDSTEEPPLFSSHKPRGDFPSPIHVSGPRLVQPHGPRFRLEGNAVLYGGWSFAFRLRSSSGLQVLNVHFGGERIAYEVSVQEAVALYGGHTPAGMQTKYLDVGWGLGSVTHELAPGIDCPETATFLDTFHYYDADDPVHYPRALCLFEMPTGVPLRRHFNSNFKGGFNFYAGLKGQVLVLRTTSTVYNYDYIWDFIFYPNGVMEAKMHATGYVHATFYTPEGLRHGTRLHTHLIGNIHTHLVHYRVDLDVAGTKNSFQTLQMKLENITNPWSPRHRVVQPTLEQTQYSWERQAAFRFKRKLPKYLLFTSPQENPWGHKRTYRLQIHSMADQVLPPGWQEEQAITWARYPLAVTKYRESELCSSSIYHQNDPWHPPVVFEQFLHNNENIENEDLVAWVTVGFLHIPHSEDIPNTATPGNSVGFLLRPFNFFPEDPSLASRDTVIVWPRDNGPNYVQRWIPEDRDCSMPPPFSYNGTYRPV
# assay explanation: DAO inhibition (Amplex Red continuous fluorescence assay)
# Format: biochemical
# setup conditions: 30 min pre-incubation at room temp; substrate histamine; read-out: Human DAO IC50
Where a name gives a salt, the structure may show the parent alone.

Field: example entries. Status: answers known.
| compound | IC50 |
| --- | --- |
| CC(C)(C)NC(=O)c1ccc(NC/C(=C/F)CN)cc1 [Compound 45, hydrochloride] | > 10 µM |
| NC/C(=C\F)CNCc1ccccc1 | > 10 µM |
| NC/C(=C/F)COc1cnc(N2CC[C@H](O)C2)nc1 | < 3 µM |

Request: Provide only the value of recorded IC50 for Cn1ccc(-c2ccc(OC/C(=C\F)CN)cc2)n1 [Compound 54, hydrochloride]
Result: < 3 µM

Request: Note down IC50 recorded for CC(C)NC(=O)Nc1ccc(OC/C(=C/F)CN)cc1 [Compound 18, hydrochloride]
Result: 3 to 10 µM

Request: Return reported IC50. Input compound: `CCNC(=O)N(C)c1ccc(NC/C(=C/F)CN)cc1`
Result: > 10 µM

Request: Return IC50 (reported value) for this compound: `CCNC(=O)Oc1ccc(OC/C(=C/F)CN)cc1`
Result: > 10 µM
